target: the molecule itself; assay: analytical ultracentrifugation, sedimentation equilibrium; self-association
We begin with a simple list: items and their reported molecular weight by sedimentation equilibrium.

Would you please look over these solved cases?
Item under review: STAT1 N-domain (R70A) (other, human, UniProt P42224 1-124, looked up, range 1-124; Interface I mutant; GST fusion cleaved with TEV protease) MSQWYELQQLDSKFLEQVHQLYDDSFPMEIRQYLAQWLEKQDWEHAANDVSFATIRFHDLLSQLDDQYSAFSLENNFLLQHNIRKSKRNLQDNFQEDPIQMSMIIYSCLKEERKILENAQRFNQ . Reported molecular weight by sedimentation equilibrium?
~27 kDa

Same again, this time with STAT1 N-domain (E29A) (other, human, UniProt P42224 1-124, looked up, range 1-124; Interface II mutant; GST fusion cleaved with TEV protease) MSQWYELQQLDSKFLEQVHQLYDDSFPMAIRQYLAQWLEKQDWEHAANDVSFATIRFHDLLSQLDDQYSRFSLENNFLLQHNIRKSKRNLQDNFQEDPIQMSMIIYSCLKEERKILENAQRFNQ
~27 kDa

Can you check STAT1 N-domain (Q36A) (other, human, UniProt P42224 1-124, looked up, range 1-124; Interface I mutant; GST fusion cleaved with TEV protease) MSQWYELQQLDSKFLEQVHQLYDDSFPMEIRQYLAAWLEKQDWEHAANDVSFATIRFHDLLSQLDDQYSRFSLENNFLLQHNIRKSKRNLQDNFQEDPIQMSMIIYSCLKEERKILENAQRFNQ next?
~29 kDa

Check STAT1 N-domain (W37F) (other, human, UniProt P42224 1-124, looked up, range 1-124; Interface I mutant; GST fusion cleaved with TEV protease; also called N-domain of STAT1 (W37F)) MSQWYELQQLDSKFLEQVHQLYDDSFPMEIRQYLAQFLEKQDWEHAANDVSFATIRFHDLLSQLDDQYSRFSLENNFLLQHNIRKSKRNLQDNFQEDPIQMSMIIYSCLKEERKILENAQRFNQ too.
~28 kDa

What do you get for STAT1 N-domain (M28A) (other, human, UniProt P42224 1-124, looked up, range 1-124; Interface II mutant; GST fusion cleaved with TEV protease) MSQWYELQQLDSKFLEQVHQLYDDSFPAEIRQYLAQWLEKQDWEHAANDVSFATIRFHDLLSQLDDQYSRFSLENNFLLQHNIRKSKRNLQDNFQEDPIQMSMIIYSCLKEERKILENAQRFNQ ?
~26 kDa

New cases:
Entry STAT1 N-domain (L15A) (other, human, UniProt P42224 1-124, looked up, range 1-124; Interface II mutant; GST fusion cleaved with TEV protease) MSQWYELQQLDSKFAEQVHQLYDDSFPMEIRQYLAQWLEKQDWEHAANDVSFATIRFHDLLSQLDDQYSRFSLENNFLLQHNIRKSKRNLQDNFQEDPIQMSMIIYSCLKEERKILENAQRFNQ has what molecular weight by sedimentation equilibrium?
~28 kDa
